- Test system: Yap1 mRNA
- procedure.summary: Dose-dependent inhibition of human Yap1 in SNU-449 cells (Example 9, RTS36584)
- Type: cell-based
- condition.label: 31.3 nM, free uptake, approximately 48 hours
Strand notation (5' to 3'): a small letter for the sugar, then the base; units joined by * are phosphorothioate-linked, units joined directly phosphodiester-linked; [ ] holds rarer units or linkages, { } end groups; capitals alone tell only the bases. e = 2'-O-(2-methoxyethyl) (MOE); k = constrained ethyl (cEt); [5mC] = 5-methylcytosine; d = 2'-deoxy (DNA); m = 2'-O-methyl
The following substances are listed with their measured % UTC (Yap1 mRNA) values.
Field: numeric (% UTC). Do not append units.

Worked examples, 4 substances total:
| substance | % UTC (Yap1 mRNA) / % UTC |
| --- | --- |
| 1198612 (kA*kA*kG*dT*dG*dT*dA*dT*dG*dT*d[5mC]*dA*kG*kA*kA*eG) [compound 1198612] | 44 |
| 1198554 (kT*kT*kA*dG*dA*dG*dT*dA*dT*dG*dT*dG*kG*k[5mC]*kA*eA; antisense) [compound 1198554] | 72 |
| 1200861 (kT*kT*kA*dA*dA*mG*dT*dG*dT*dA*dT*dG*dT*k[5mC]*kA*kG; antisense) [compound 1200861] | 74 |
| 1198911 (kG*kA*dG*dG*dT*dA*dT*dA*dA*d[5mC]*dT*kG*dG*kG*d[5mC]*kA; antisense) [compound 1198911] | 62 |

// query Quick check: % UTC (Yap1 mRNA) of 1197309 (kG*kT*kA*dA*mU*dA*dT*dT*dG*d[5mC]*dA*dA*dT*k[5mC]*kT*kG; antisense) [compound 1197309] ?
// result 91

// query What does the record list as % UTC (Yap1 mRNA) for 1198959 (kA*kG*dT*dG*dT*dA*dT*dG*dT*d[5mC]*dA*kG*dA*kA*dG*kA; antisense) [compound 1198959] ?
// result 62

// query Can you look up the measured % UTC (Yap1 mRNA) of 1198355 (kA*kA*kA*dG*dT*dG*dT*dA*dT*dG*dT*d[5mC]*kA*eG*kA*eA; antisense) [compound 1198355] for me?
// result 63

---

- Test system: Yap1 mRNA
- procedure.summary: Antisense inhibition of human Yap1 in A-431 cells by cEt gapmers, single dose (Example 2, RTS4814)
- Type: cell-based
- condition.label: Table 20; Yap1 mRNA, percent of untreated control; 3-10-3 cEt gapmers targeting SEQ ID NO.: 1 and 2
- Experimental: Modified oligonucleotides were designed to target a Yap1 nucleic acid and were tested for their effect on Yap1 mRNA level in vitro. The modified oligonucleotides were tested in a series of experiments that had similar culture conditions. […] After a treatment period of approximately 48 hours, RNA was isolated from the cells and Yap1 mRNA levels were measured by quantitative real-time RTPCR. […] Yap1 mRNA levels were normalized to total RNA content, as measured by RIBOGREEN®. […]
Strand notation (5' to 3'): a small letter for the sugar, then the base; units joined by * are phosphorothioate-linked, units joined directly phosphodiester-linked; [ ] holds rarer units or linkages, { } end groups; capitals alone tell only the bases. k = constrained ethyl (cEt); [5mC] = 5-methylcytosine; d = 2'-deoxy (DNA)
reported.endpoint: YAP1 (% UTC)
The reply should contain only the number, in % UTC.

| substance | experimental.target | YAP1 (% UTC) |
| --- | --- | --- |
| 1076486 (antisense kG*kA*kA*dA*d[5mC]*dG*dA*dA*dA*d[5mC]*dG*dG*dG*kA*kA*kA) [Compound 1076486] | Yap1 mRNA | 5 |

Let us examine a further case.
// query GET /values?readout=YAP1 (% UTC)&item= 1075014 (antisense kG*kG*kA*dG*dA*dA*dA*dT*dA*dA*dA*dA*dG*kT*k[5mC]*kG) [Compound 1075014]
// result 46

---

Property: YAP1 (% UTC); scope: individual substances
- Tested on: Yap1 mRNA
- procedure.summary: Antisense inhibition of human Yap1 in A-431 cells by cEt gapmers, single dose (Example 4, RTS4814)
- Assay type: cell-based
- condition.label: Yap1 mRNA remaining as percent of untreated control; 3-10-3 cEt gapmers; A-431 cells; Table 36
- Description: Modified oligonucleotides were designed to target a Yap1 nucleic acid and were tested for their effect on Yap1 mRNA level in vitro. The modified oligonucleotides were tested in a series of experiments that had similar culture conditions. […] After a treatment period of approximately 48 hours, RNA was isolated from the cells and Yap1 mRNA levels were measured by quantitative real-time RTPCR. […] Yap1 mRNA levels were normalized to total RNA content, as measured by RIBOGREEN®. […]
Strand notation (5' to 3'): a small letter for the sugar, then the base; units joined by * are phosphorothioate-linked, units joined directly phosphodiester-linked; [ ] holds rarer units or linkages, { } end groups; capitals alone tell only the bases. k = constrained ethyl (cEt); [5mC] = 5-methylcytosine; d = 2'-deoxy (DNA)
Numbers only here, please. The scale is % UTC.

Would you please look over these solved cases?
| substance | YAP1 (% UTC) |
| --- | --- |
| 1075350 (antisense kG*kA*kT*dT*dA*dA*dA*dG*d[5mC]*dT*d[5mC]*dA*dT*kT*kG*kA) [compound 1075350] | 62 |
| 1075894 (antisense k[5mC]*kT*k[5mC]*dG*dA*dA*dA*dG*d[5mC]*dT*dG*dG*dG*k[5mC]*k[5mC]*k[5mC]) [compound 1075894] | 100 |

Shifting focus to the substance that follows.
// query Returns the measured YAP1 (% UTC) for the input substance. Input: 1074166 (antisense kA*k[5mC]*k[5mC]*d[5mC]*dA*dG*dG*d[5mC]*dG*dA*dG*d[5mC]*dG*kA*kG*kG) [compound 1074166]
// result 72

---

Below, each entry is listed with its recorded pIC50.
- Tested on: Yap1 mRNA
- procedure.summary: Dose-dependent inhibition of human Yap1 in A-431 cells (Example 8, 10,000 cells per well, RTS4814)
- Format: cell-based
- condition.label: A-431 cells, free uptake, approximately 48 hours, RTS4814; linear regression on log/linear plot
Strand notation (5' to 3'): a small letter for the sugar, then the base; units joined by * are phosphorothioate-linked, units joined directly phosphodiester-linked; [ ] holds rarer units or linkages, { } end groups; capitals alone tell only the bases. k = constrained ethyl (cEt); [5mC] = 5-methylcytosine; d = 2'-deoxy (DNA)
// pIC50 is dimensionless: -log10 of concentration (M)

Consider the following illustrative entries.
| substance | reported.endpoint | reading |
| --- | --- | --- |
| 1074762 (kG*k[5mC]*kT*dA*d[5mC]*d[5mC]*d[5mC]*dA*dA*dT*dA*d[5mC]*dA*kA*k[5mC]*k[5mC]; antisense) [compound 1074762] | pIC50 | 7.00 |
| 1074368 (kG*kA*kT*dA*dG*dT*dA*dT*d[5mC]*dA*d[5mC]*d[5mC]*dT*kG*kT*kA; antisense) [compound 1074368] | pIC50 | 7.00 |
| 1076552 (kA*kT*kG*dT*dA*dT*dA*dA*dA*dT*dA*d[5mC]*d[5mC]*kA*kG*kG; antisense) [compound 1076552] | pIC50 | 7.00 |

// query Entry under review: 1075053 (antisense kA*kA*kT*dA*dT*dA*dT*dA*d[5mC]*dT*dT*dG*dA*kT*k[5mC]*k[5mC]) [compound 1075053] . Reported pIC50?
// result 7.40

// query // lookup pIC50 for 1076459 (k[5mC]*kT*kT*d[5mC]*dA*dA*d[5mC]*dA*dA*dG*dA*d[5mC]*dA*kG*kG*kT; antisense) [compound 1076459]
// result 7.00

// query Field request: pIC50 | item: 1076388 (antisense kG*kA*kA*dA*dT*dA*dT*dT*d[5mC]*dG*dA*dG*dA*kA*kG*kA) [compound 1076388]
// result 7.00

// query Requested field: pIC50. Item: 1076461 (kG*kA*kT*dT*dA*dA*dT*dA*dT*dA*dG*d[5mC]*d[5mC]*k[5mC]*k[5mC]*kT; antisense) [compound 1076461]
// result 7.40

// query May I ask what pIC50 has been recorded for 1075055 (antisense k[5mC]*kT*kA*dT*dT*dA*dA*dG*dT*dG*dA*dG*d[5mC]*kT*kT*kT) [compound 1075055] ?
// result 7.52

// query Which pIC50 value is on record for 1076000 (k[5mC]*k[5mC]*kT*dA*dA*dT*dA*dT*dG*dA*d[5mC]*dT*d[5mC]*k[5mC]*kT*kT; antisense) [compound 1076000] ?
// result 7.00
